- System: NOMO1
- Test Name: cell viability relative to DMSO control; higher = less cytotoxic
- Condition Context: RPMI 5 mM glucose + 10% dialyzed FBS; 48 h; 15.4 µM
Readout Type: cell viability

input: Record request: cell viability value, item CC1=C(CC(=O)O)c2cc(F)ccc2/C1=C\c1ccc([S+](C)[O-])cc1 (stereo not drawn)
output: 107%

input: Record: `CC[C@@]1(O)C(=O)OC\C2=C1\C=C\3N(CC4=C3N=C5C=CC=CC5=C4)C2=O`
output: 22.4%

input: Record: `Cc1ccc([S+](=O)([O-])Nc2nc3ccccc3nc2Nc2ccc3nsnc3c2)cc1`
output: 15.9%

input: Record: `CN(C)CC[C@H](c1ccc(Cl)cc1)c1ccccn1`
output: 91%

input: Record: CN1CCCC(CC1)N2\N=C(CC3=CC=C(Cl)C=C3)/C4=C(C=CC=C4)C2=O (stereo not drawn)
output: 106%

input: Record: `NCCCCNCCCN`
output: 109%

input: Record: `CN(C)CCN(C)C(=O)c1ccc(NC(=O)Nc2ccc(-c3nc(N4CCOCC4)c4ccn(CC(F)(F)F)c4n3)cc2)cc1`
output: 68.1%

input: Record: `Nc1ncnc2ccccc12`
output: 98.4%

----------
Please go through the items and note down their cell viability.
- System: P12-Ichikawa
- Test Name: cell viability relative to DMSO control; higher = less cytotoxic
- Condition Context: RPMI 5 mM glucose + 10% FBS; 48 h; 0.000781 µM
Note: a bare number is incomplete; add the unit.

input: Record request: cell viability value, item `c1ccc(CNc2nc(N3CCOc4ccccc43)nc3c2CCCC3)cc1`
output: 102%

input: Record: `O=C(c1ccc(F)c(F)c1Nc1ccc(I)cc1F)N1CC(O)([C@@H]2CCCCN2)C1`
output: 97.3%

input: Record: `C[C@]12CC[C@@H]3c4ccc(O)cc4CC[C@H]3[C@@H]1C[C@@H](O)[C@@H]2O`
output: 120%

input: Record: `NC(=O)c1cccc2cn(-c3ccc([C@@H]4CCCNC4)cc3)nc12`
output: 83.9%

input: Record: `CN1\N=C(N)/C2=C[N]([C@@H]3O[C@H](CO[P](O)(O)=O)[C@@H](O)[C@H]3O)C4=C2C1=NC=N4`
output: 114%

input: Record: `CC(/C=C/C(=O)NO)=C\[C@@H](C)C(=O)c1ccc(N(C)C)cc1`
output: 116%

input: Record: `O=C(O)/C=C/c1ccc(O)c(O)c1`
output: 106%

input: Record: `Nc1nc(N)c2nc(-c3cccc(O)c3)c(-c3cccc(O)c3)nc2n1`
output: 108%

input: Record: `COC/1=C/C=C2\C(=C/C1=O)[C@H](CCC3=CC(=C(OC)C(=C23)OC)OC)NC(C)=O`
output: 32.3%

----------
Please go through the items and note down their cell viability.
- Tested on: P12-Ichikawa
- Test Name: cell viability relative to DMSO control; higher = less cytotoxic
- Condition Context: RPMI 5 mM glucose + 10% dialyzed FBS; 48 h; 5.12 µM

input: Record request: cell viability value, item `CCN(C(=O)C/1=C(O)/C2=C(C=CC=C2Cl)N(C)C1=O)C3=CC=CC=C3`
output: 16.3%

input: Record: `CN1CCC[C@@H]1CCO[C@](C)(c1ccccc1)c1ccc(Cl)cc1`
output: 104%

input: Record: `COc1cc2c(Nc3ccc(Br)cc3F)ncnc2cc1OCC1CCN(C)CC1`
output: 76.9%

input: Record: `COc1cc2nc(-c3cc(F)ccc3O)nc(N[C@@H]3CNC[C@H]3C(C)(C)O)c2cc1OC`
output: 69.6%

input: Record: `COC/1=C/C=C2\C(=C/C1=O)[C@H](CCC3=CC(=C(OC)C(=C23)OC)OC)NC(C)=O`
output: 4.83%
